The values you see were collected from patent US9458179B2.

Listed below: EC50 values for each entry.
Molecular target: α-7 nicotinic ACh receptor ion channel (Rattus norvegicus)
Construct: expressed in transfected cells
Assay: Ca2+-sensitive fluorescence-based FLIPR assay of α7 nicotinic receptor channel function (agonist activity)
Type: cell-based
Conditions: FLIPR α7-HI (EC50, nM), HEK 293 cells, Ca2+ flux
REPORTED METRIC: EC50 (nM)

> print(dat)
                                   compound  reported.metric  display.unit  assay.value
1  Clc1cnc(NC2=NCC3(CN4CCC3CC4)N2)nc1 (centres unmarked)             EC50            nM          286
2  CN1C(Nc2ccc3ccccc3n2)=NCC12CN1CCC2CC1 (centres unmarked)             EC50            nM          942
3  CN1C(Nc2cc3ccccc3cn2)=NCC12CN1CCC2CC1 (centres unmarked)             EC50            nM          787
4  Clc1ccc2nc(NC3=NCC4(CN5CCC4CC5)N3)sc2c1 (centres unmarked)             EC50            nM          154
5  c1csc(NC2=NCC3(CN4CCC3CC4)N2)n1 (centres unmarked)             EC50            nM         1060

###

Target: α-7 nicotinic ACh receptor ion channel (Rattus norvegicus)
Construct: expressed in transfected cells
Experiment: Ca2+-sensitive fluorescence-based FLIPR assay of α7 nicotinic receptor channel function (agonist activity)
Type: cell-based
Details: HEK 293 cells, Ca2+ flux; Table 3; read-out: FLIPR α7-HI (EC50)
pEC50: −log10 of the molar value.
REPORTED METRIC: pEC50

> print(dat)
                                   compound  assay.value
1  c1ccc2[nH]c(NC3=NCCC4(CN5CCC4CC5)O3)nc2c1 (stereo not shown)       < 4.00

###

Listed below: EC50 values for each entry.
Target: α-7 nicotinic ACh receptor ion channel (Rattus norvegicus, UniProt Q05941)
Construct: expressed in transfected cells
Sequence (Q05941 23-502): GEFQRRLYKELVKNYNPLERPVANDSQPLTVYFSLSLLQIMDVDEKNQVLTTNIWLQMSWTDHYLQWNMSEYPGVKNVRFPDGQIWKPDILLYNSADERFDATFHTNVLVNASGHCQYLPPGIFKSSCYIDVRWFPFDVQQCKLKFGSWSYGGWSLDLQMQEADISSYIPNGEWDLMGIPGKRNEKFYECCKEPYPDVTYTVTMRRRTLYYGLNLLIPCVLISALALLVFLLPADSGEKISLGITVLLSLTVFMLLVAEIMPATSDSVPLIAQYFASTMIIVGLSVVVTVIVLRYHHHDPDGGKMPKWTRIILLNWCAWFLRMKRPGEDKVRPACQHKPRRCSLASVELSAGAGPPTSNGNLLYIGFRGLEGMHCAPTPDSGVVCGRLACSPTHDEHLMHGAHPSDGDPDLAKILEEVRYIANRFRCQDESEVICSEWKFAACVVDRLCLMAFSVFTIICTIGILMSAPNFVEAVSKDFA
Assay: Ca2+-sensitive fluorescence-based FLIPR assay of α7 nicotinic receptor channel function (agonist activity)
Type: cell-based
Details: FLIPR α7-HI (EC50, nM), HEK 293 cells, Ca2+ flux; Table 4, activity class
REPORTED METRIC: EC50

> print(dat)
                                   compound        assay.value
1  CN1CC2(CN3CCC2CC3)O/C1=N\c1ncc(-c2ccccc2)s1 (stereo not drawn)     100 to 1000 nM
2  COc1ccc2nc(/N=C3\OC4(CN5CCC4CC5)CN3C)sc2c1 (stereo not drawn)         > 1e+06 nM
3  CN1CC2(CN3CCC2CC3)O/C1=N\c1cnc(Cl)cn1 (stereo not drawn)  1000 to 100000 nM

###

Target: α-7 nicotinic ACh receptor ion channel (Rattus norvegicus)
Construct: expressed in transfected cells
Assay: Ca2+-sensitive fluorescence-based FLIPR assay of α7 nicotinic receptor channel function (agonist activity)
Type: cell-based
Details: HEK 293 cells, Ca2+ flux; Table 3, activity class; read-out: FLIPR α7-HI (EC50)
REPORTED METRIC: EC50

> print(dat)
                                   compound                                    target  reported.metric  assay.value
1  c1ccc2[nH]c(NC3=NCCC4(CN5CCC4CC5)O3)nc2c1 (stereo not shown) [Example 77]  α-7 nicotinic ACh receptor ion channel (Rattus norvegicus)             EC50    > 1000 µM
